assay: Metabolic stability after incubation with human liver microsomes (LC-MS/MS); assay type: in vitro ADME; details: human, human liver microsomes, pH 7.4, drug alone, 1 µM, HLM 1 mg/mL; read-out: CLint (intrinsic clearance)
Endpoint Name: microsomal CLint at 1 µM (µL/min/mg)
Give the value, in units of µL/min/mg, as a plain number.

| Compound | microsomal CLint at 1 µM [µL/min/mg] |
| --- | --- |
| Cn1cnc2c(F)c(Nc3ccc(Br)cc3F)c(C(=O)NOCCO)cc21 [BNB, binimetinib] | 11.5 |

Okay, next one:
Which microsomal CLint at 1 µM is listed for COC(=O)N[C@@H](C)CNc1nccc(-c2cn(C(C)C)nc2-c2cc(Cl)cc(NS(C)(=O)=O)c2F)n1 [ENF, encorafenib] ?
16.1

----------
assay: Metabolic stability after incubation with human liver microsomes (LC-MS/MS); type: in vitro ADME; details: human, human liver microsomes, pH 7.4, in mixture of ENF and BNB, 1 µM, HLM 1 mg/mL; read-out: CLint (intrinsic clearance)
Each record here notes measured microsomal CLint at 1 µM.
Be sure to follow the number with its unit.

| Compound | Test Value |
| --- | --- |
| COC(=O)N[C@@H](C)CNc1nccc(-c2cn(C(C)C)nc2-c2cc(Cl)cc(NS(C)(=O)=O)c2F)n1 [ENF, encorafenib] | 15.1 µL/min/mg |

Next compound, microsomal CLint at 1 µM to be filled in.
Any idea what microsomal CLint at 1 µM was measured for Cn1cnc2c(F)c(Nc3ccc(Br)cc3F)c(C(=O)NOCCO)cc21 [BNB, binimetinib] ?
11.9 µL/min/mg

----------
test: Metabolic stability after incubation with human liver microsomes (LC-MS/MS); type: in vitro ADME; conditions: human, human liver microsomes, pH 7.4, drug alone, 1 µM, HLM 1 mg/mL, NADPH 1 mM, 37 °C; read-out: in vitro t1/2 (half-life)
Endpoint Name: half-life at 1 µM (min)
Reply numerically in min, unit not repeated.

| Structure Smiles String | half-life at 1 µM / min |
| --- | --- |
| COC(=O)N[C@@H](C)CNc1nccc(-c2cn(C(C)C)nc2-c2cc(Cl)cc(NS(C)(=O)=O)c2F)n1 | 43.1 |

Field: next compound
What half-life at 1 µM value was documented for this compound, Cn1cnc2c(F)c(Nc3ccc(Br)cc3F)c(C(=O)NOCCO)cc21 ?
60.3

Cited source: paper PMC8125647
